Target: T1, recombinant dimeric c-Met (R&D systems, 358-MT/CF) (human, UniProt P08581 25-932)
T1 construct: Bought product; also called Fc-Met; recombinant c-Met
T1 sequence (P08581 25-932 limits assumed): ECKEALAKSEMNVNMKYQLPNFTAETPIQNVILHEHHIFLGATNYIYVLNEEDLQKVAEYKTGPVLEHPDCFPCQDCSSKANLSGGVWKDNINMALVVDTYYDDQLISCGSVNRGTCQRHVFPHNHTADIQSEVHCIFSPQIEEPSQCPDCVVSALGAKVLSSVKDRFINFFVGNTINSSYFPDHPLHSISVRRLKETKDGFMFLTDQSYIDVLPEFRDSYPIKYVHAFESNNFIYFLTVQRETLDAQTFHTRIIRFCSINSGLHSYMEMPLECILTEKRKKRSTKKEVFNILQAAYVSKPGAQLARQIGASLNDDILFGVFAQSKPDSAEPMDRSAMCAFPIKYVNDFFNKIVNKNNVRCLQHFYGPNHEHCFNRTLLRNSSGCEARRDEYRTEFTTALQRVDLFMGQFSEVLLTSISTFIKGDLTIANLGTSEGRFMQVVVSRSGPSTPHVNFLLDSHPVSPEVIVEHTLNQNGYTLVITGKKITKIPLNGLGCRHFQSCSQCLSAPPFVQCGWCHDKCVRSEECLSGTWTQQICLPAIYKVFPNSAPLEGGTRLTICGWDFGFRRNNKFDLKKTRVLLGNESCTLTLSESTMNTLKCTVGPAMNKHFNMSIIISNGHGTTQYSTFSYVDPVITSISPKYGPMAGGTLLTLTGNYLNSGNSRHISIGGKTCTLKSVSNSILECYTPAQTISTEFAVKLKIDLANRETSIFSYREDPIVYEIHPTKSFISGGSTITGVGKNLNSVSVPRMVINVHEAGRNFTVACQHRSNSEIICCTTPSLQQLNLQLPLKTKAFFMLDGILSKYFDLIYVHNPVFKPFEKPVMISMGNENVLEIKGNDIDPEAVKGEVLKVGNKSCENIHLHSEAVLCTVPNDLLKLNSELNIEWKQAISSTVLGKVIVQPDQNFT
Test: competition ELISA: recombinant dimeric c-Met (100 ng/ml) captured by coated mouse anti-His antibody; antibody dilutions 30 min, then 25 ng/ml N-terminally biotinylated HGF (the competitor); strep-HRP, TMB, 620 nm; percent competition against the controls
test readout: IC50 (read off the curve)

Below: 2 binders and their reported IC50 (read off the curve).
murine 5D5 antibody (antibody, V domains shown) VH: QVQLQQSGPELVRPGASVKMSCRASGYTFTSYWLHWVKQRPGQGLEWIGMIDPSNSDTRFNPNFKDKATLNVDRSSNTAYMLLSSLTSADSAVYYCATYGSYVSPLDYWGQGTSVTVSS VL: DIMMSQSPSSLTVSVGEKVTVSCKSSQSLLYTSSQKNYLAWYQQKPGQSPKLLIYWASTRESGVPDRFTGSGSGTDFTLTITSVKADDLAVYYCQQYYAYPWTFGGGTKLEIK ... ~800 pM
34H7 mAb (antibody, V domains shown) VH: ELQLVESGGALVQPGGSLRLSCVESGFTFSSYAMSWVRQAPGKGLEWVSGIYKGGGPKYANSVKGRFTISRDNAKNTLYLQMNSLKPEDTAVYYCAKSGYGSSLGDFGSWGQGTQVTVSS VL: QAGLTQLSSMSGSPGQTVTITCTGSSSNIGGGYYLSWYQHLPGTAPKLLIYSNINRASGVPDRFSGSTSGISASLTITGLQAEDEADYYCSSWDDSVSGPVFGGGTSLTVL ... ~200 pM

Fill blank: measured IC50 (read off the curve) of the binder 38H10 mAb (antibody, V domains shown) VH: EVQLVQPGVELRNPGASVKVSCKASGYIFTMNSIDWVRQAPGQGLEWMGRIDPEDGGTKYAQKFQGRVTFTADTSTSTAYVELNSLRSEDTAVYYCARVDDYYLGYDYWGQGTQVTVSS VL: EIVMTQSPSSVTASAGEKVTINCKSSQSVLWRSNQKNYLAWYQQRLGQSPRLLISWASIRESGVPDRFSGSGSTTDFTLTISSFQPEDAAVYYCQQGYSFPYTFGSGTRLEIK is ____. ~30 pM
